Assign log10 of IC50 to each entry below.
Molecular target: GRK2 (Homo sapiens)
Sequence (P25098 whole entry): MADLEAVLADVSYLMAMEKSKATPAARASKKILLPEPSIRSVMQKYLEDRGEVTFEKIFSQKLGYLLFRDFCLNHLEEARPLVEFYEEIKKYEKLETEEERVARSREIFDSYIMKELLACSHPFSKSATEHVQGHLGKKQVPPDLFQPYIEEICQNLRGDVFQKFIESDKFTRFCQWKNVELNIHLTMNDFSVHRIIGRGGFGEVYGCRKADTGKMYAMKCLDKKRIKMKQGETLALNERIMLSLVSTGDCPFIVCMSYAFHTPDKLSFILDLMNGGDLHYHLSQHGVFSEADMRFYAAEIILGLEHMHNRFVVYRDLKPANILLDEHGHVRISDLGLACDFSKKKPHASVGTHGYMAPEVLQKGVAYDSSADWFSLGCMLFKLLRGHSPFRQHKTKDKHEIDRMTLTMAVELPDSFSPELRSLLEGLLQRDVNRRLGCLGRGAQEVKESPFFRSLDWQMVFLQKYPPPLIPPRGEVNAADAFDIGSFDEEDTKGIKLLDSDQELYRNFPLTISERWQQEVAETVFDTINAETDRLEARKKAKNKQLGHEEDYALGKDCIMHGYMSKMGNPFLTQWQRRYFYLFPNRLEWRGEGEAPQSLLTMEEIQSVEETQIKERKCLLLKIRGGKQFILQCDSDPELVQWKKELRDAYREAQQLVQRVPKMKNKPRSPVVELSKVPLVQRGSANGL
Assay: biochemical
Details: GRK2 IC50 (μM), 10 nM GRK2; 10 uM ATP
Log scale reminder: IC50 in µM, then log10 taken.

Dear colleague, I am looking for the recorded log10 of IC50 of the following compound: O=c1c2cc(-c3cn[nH]c3)ccc2ncn1Cc1cccc(Cl)c1 [Compound 50] -1.12

Dear colleague, I am looking for the recorded log10 of IC50 of the following compound: O=c1c2cc(-c3cn[nH]c3)ccc2ncn1Cc1cccc(OC(F)(F)F)c1 [Compound 66] 1.35

Dear colleague, I am looking for the recorded log10 of IC50 of the following compound: COc1cc(Cn2cnc3ccc(-c4ccnc5[nH]ccc45)cc3c2=O)ccc1F [Compound 54] 1.09

Dear colleague, I am looking for the recorded log10 of IC50 of the following compound: O=C(NCc1ccc(F)cc1)c1cc(Cn2cnc3ccc(-c4cn[nH]c4)cc3c2=O)ccn1 [Compound C5] -0.67

Dear colleague, I am looking for the recorded log10 of IC50 of the following compound: CCC(c1cccc(OC)c1)n1cnc2ccc(-c3cn[nH]c3)cc2c1=O (centres unmarked) [Compound 35] -0.91

Dear colleague, I am looking for the recorded log10 of IC50 of the following compound: COc1cccc(Cn2cnc3ccc(-n4cn[nH]c4=O)cc3c2=O)c1 [Compound 38] -0.89

Dear colleague, I am looking for the recorded log10 of IC50 of the following compound: O=C(NCc1ccc(F)cc1F)c1ccc(Cn2cnc3ccc(-c4cn[nH]c4)cc3c2=O)cc1 [Compound C2] 0.64

Dear colleague, I am looking for the recorded log10 of IC50 of the following compound: COc1cccc(C(CCN(C)C)n2cnc3ccc(-c4cn[nH]c4)cc3c2=O)c1 (centres unmarked) [Compound 29] -1.27

Dear colleague, I am looking for the recorded log10 of IC50 of the following compound: CC(c1cccc(NS(C)(=O)=O)c1)n1cnc2ccc(-c3cn[nH]c3)cc2c1=O (centres unmarked) [Compound 33] -1.48

Dear colleague, I am looking for the recorded log10 of IC50 of the following compound: [2H]C([2H])(Oc1cccc([C@@H](C)n2cnc3ccc(-c4cn[nH]c4)cc3c2=O)c1)C(=O)NC1CC1 [Compound 23] -1.46

Dear colleague, I am looking for the recorded log10 of IC50 of the following compound: COc1cccc(Cn2c(C(F)(F)F)nc3ccc(-c4cn[nH]c4)cc3c2=O)c1 [Compound 21] -0.37

Dear colleague, I am looking for the recorded log10 of IC50 of the following compound: NC1CCN(c2nc3ccc(-c4cn[nH]c4)cc3c(=O)n2Cc2cccc(C(=O)NCc3ccc(F)cc3)c2)C1 (centres unmarked) [Compound 55] -1.85

Dear colleague, I am looking for the recorded log10 of IC50 of the following compound: Cc1nc2ccc(-c3cn[nH]c3)cc2c(=O)n1Cc1cccc(OC2CN(C)C2)c1 [Compound 25] 0.37
